measured.target: human recombinant ghrelin receptor (GHS-R1a) (Homo sapiens, UniProt Q92847)
Construct: host or cells: CHO-K1
Sequence (Q92847 whole entry): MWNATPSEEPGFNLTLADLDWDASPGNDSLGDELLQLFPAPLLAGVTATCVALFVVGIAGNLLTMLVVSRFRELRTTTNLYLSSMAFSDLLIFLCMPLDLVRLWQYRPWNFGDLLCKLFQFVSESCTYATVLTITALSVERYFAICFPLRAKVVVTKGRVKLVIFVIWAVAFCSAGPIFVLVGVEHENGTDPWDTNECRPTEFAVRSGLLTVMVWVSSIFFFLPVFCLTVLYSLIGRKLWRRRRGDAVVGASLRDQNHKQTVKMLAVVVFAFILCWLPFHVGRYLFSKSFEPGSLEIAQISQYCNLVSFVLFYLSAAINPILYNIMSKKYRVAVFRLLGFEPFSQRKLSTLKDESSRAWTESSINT
test.summary: cAMP assay (HTRF), CHO-hGHS-R1a cells
Type: cell-based
condition.notes: relative to the ghrelin response (defined as 100%)
measure: Emax (%)
Entry rule: numbers only, all in %.

| compound | units.symbol | measurement |
| --- | --- | --- |
| CN1CC(c2ccccc2)C2(CCCN(C(=O)[C@@H](COCc3ccc(F)cc3)NC(=O)C(C)(C)N)C2)C1=O (single isomer, unassigned) [Example 7.0] | % | 153 |
| Cc1ccc(COC[C@@H](NC(=O)C(C)(C)N)C(=O)N2CCCC3(C2)C(=O)N(C)CC3c2ccc(F)cc2)cc1 (single isomer, unassigned) [Example 1.29] | % | 243 |
| CN1CC(c2ccc(Cl)cc2)C2(CCCN(C(=O)[C@@H](COCc3ccccc3)NC(=O)C(C)(C)N)C2)C1=O (single isomer, unassigned) [Example 1.8] | % | 149 |
| CN1CN(c2ccccc2)C2(CCCN(C(=O)[C@@H](COCc3ccccc3)NC(=O)C(C)(C)N)C2)C1=O (single isomer, unassigned) [Example 1.61] | % | 189 |
| CCC(N)(CC)C(=O)N[C@H](COCc1ccccc1)C(=O)N1CCC[C@@]2(C1)C(=O)N(C)C[C@H]2c1ccccc1 [Example 1.71] | % | 111 |

Please examine the following record next.
Prompt: Which Emax is listed for CC(C)(C)CN1CC(c2ccccc2)C2(CCCN(C(=O)[C@@H](COCc3ccccc3)NC(=O)C(C)(C)N)C2)C1=O (single isomer, unassigned) [Example 1.40] ?
Completion: 164

* * *

measured.target: human recombinant ghrelin receptor (GHS-R1a) (Homo sapiens, UniProt Q92847)
Construct: host or cells: CHO-K1
test.summary: cAMP assay (HTRF), CHO-hGHS-R1a cells
Type: cell-based
condition.notes: relative to the ghrelin response (defined as 100%)
hGHS-R1a cAMP assay Emax/% reference
Entry rule: numbers only, all in %.

| compound | hGHS-R1a cAMP assay Emax/%, % |
| --- | --- |
| CN1CC(c2ccccc2)C2(CCCN(C(=O)[C@@H](COCc3ccccc3)NC(=O)C(C)(C)N)C2)C1=O (single isomer, unassigned) [Example 1.20] | 169 |
| CN1CC(c2ccccc2)C2(CCCN(C(=O)[C@@H](COCc3ccccc3)NC(=O)C(C)(C)N)C2)C1=O (single isomer, unassigned) [Example 1.21] | 122 |
| CC(C)(N)C(=O)N[C@H](COCc1ccccc1)C(=O)N1CCCC2(C1)C(=O)NCC2c1ccccc1 (single isomer, unassigned) [Example 1.4] | 127 |

Please examine the following record next.
Prompt: Which hGHS-R1a cAMP assay Emax/% is listed for CC(C)(N)C(=O)N[C@H](COCc1ccccc1)C(=O)N1CCCC2(C1)C(=O)NCC2c1ccccc1 (single isomer, unassigned) [Example 1.49] ?
Completion: 88

* * *

measured.target: human recombinant ghrelin receptor (GHS-R1a) (Homo sapiens)
Construct: host or cells: CHO-K1
test.summary: cAMP assay (HTRF), CHO-hGHS-R1a cells
Type: cell-based
condition.notes: CHO-hGHS-R1a cells, 60 min incubation, maximum concentration 30 μM
measure: EC50 (µM)
Entry rule: numbers only, all in µM.

Prompt: Which EC50 is listed for CN1CC(c2ccccc2)C2(CCN(C(=O)[C@@H](COCc3ccccc3)NC(=O)C(C)(C)N)C2)C1=O (single isomer, unassigned) ?
Completion: 2.38
